Test target: JAK2 (Homo sapiens)
Construct: host or cells: baculovirus expression system
Protocol details: Recombinant Human JAK2 Kinase Assay (TRF)
Assay type: biochemical
Conditions: JAK2 Kinase Inhibition; read-out: JAK2 Potency
Quantity kind: IC50

CN1CCN(c2ccc(Nc3ncc4ccc(-c5ccccc5CO)n4n3)cc2)CC1 = < 100 nM
CC(=O)Nc1cccc(Nc2ncc3ccc(-c4cccc(N5CCCS5(=O)=O)c4)n3n2)c1 = < 100 nM
COc1ccccc1-c1ccc2cnc(Nc3ccc(CN4CCN(C)CC4)cc3)nn12 = < 100 nM
COc1cc(N2CCC[C@H](C(=O)N3CCN(C)CC3)C2)ccc1Nc1ncc2ccc(-c3ccccc3OC)n2n1 = 100 to 1000 nM

For each entry beneath this line, provide reported IC50.
1. COc1cc(N2CCN(C)CC2)ccc1Nc1ncc2ccc(-c3ccccc3S(=O)(=O)N(C)C)n2n1
2. CC(=O)N1CC(C)(C)c2ccc(Nc3ncc4ccc(-c5cccc(S(=O)(=O)NC(C)(C)C)c5)n4n3)cc21
3. CN1C(=O)Cc2cc(Nc3ncc4ccc(-c5cccnc5)n4n3)ccc21
4. COc1ccc(-c2ccc3cnc(Nc4cccc(C5(O)CCNCC5)c4)nn23)cn1
5. COCc1ccc(-c2ccc3cnc(Nc4ccc(N5CCN(C)CC5)cc4)nn23)cc1
6. CC(C)(C)NS(=O)(=O)c1cccc(-c2ccc3cnc(Nc4cccc(C(N)=O)c4)nn23)c1

1. 1000 to 10000 nM
2. < 100 nM
3. < 100 nM
4. < 100 nM
5. < 100 nM
6. < 100 nM

* * *

Test target: JAK2 (Homo sapiens, UniProt O60674)
Construct: host or cells: baculovirus expression system
Sequence (O60674 whole entry): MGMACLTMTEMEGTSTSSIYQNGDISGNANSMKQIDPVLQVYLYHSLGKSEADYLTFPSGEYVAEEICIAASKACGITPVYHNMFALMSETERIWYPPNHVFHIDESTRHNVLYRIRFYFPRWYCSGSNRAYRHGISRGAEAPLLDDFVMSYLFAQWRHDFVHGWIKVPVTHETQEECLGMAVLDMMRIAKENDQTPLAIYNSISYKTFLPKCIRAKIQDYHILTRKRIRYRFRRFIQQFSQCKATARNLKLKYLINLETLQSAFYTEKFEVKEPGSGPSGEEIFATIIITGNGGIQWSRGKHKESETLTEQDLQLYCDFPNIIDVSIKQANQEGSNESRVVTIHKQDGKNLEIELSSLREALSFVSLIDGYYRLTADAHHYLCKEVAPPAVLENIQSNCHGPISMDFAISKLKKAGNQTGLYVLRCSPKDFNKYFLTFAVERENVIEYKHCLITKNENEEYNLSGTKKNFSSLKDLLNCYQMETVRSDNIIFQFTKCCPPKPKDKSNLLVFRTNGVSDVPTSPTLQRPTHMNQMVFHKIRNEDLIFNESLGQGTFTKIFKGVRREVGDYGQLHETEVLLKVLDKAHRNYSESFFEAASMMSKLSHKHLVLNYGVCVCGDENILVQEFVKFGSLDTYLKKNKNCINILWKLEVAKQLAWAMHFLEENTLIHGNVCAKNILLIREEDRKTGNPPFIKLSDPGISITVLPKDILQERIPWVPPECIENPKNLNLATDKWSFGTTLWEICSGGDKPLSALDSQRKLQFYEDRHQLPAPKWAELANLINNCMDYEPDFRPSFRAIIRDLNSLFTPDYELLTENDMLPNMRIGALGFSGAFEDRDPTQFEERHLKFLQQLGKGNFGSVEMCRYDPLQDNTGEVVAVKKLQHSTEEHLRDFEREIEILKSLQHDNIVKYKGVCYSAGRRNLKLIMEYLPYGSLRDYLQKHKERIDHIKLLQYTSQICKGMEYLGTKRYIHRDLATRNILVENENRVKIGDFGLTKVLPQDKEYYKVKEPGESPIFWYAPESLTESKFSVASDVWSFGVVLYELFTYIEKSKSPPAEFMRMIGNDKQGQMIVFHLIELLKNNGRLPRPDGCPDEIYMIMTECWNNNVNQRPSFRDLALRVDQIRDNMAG
Protocol details: Recombinant Human JAK2 Kinase Assay (TRF)
Assay type: biochemical
Conditions: JAK2 kinase inhibition, 0.2 μM ATP; read-out: JAK2 Potency
pIC50: −log10 of the molar value.
For each record, write down the corresponding pIC50.

Use the examples below as a reference point.
O=S(=O)(CC1CC1)c1cccc(-c2ccc3cnc(Nc4ccc5[nH]ncc5c4)nn23)c1 = > 7.00
CN1CCN(C)C(c2ccc(Nc3ncc4ccc(-c5cccc(S(=O)(=O)N6CCOCC6)c5)n4n3)cc2)C1=O (stereo not drawn) = > 7.00
COc1cc(C2CCN(C[C@H](O)CO)CC2)ccc1Nc1ncc2ccc(-c3cccc(S(=O)(=O)NC(C)(C)C)c3)n2n1 = 6.00 to 7.00
COc1cc(N2CCC(N3CCOCC3)CC2)ccc1Nc1ncc2ccc(-c3ccc(F)cc3OC)n2n1 = > 7.00
COc1cc(N2CCC(N3CCCN(CCO)CC3)CC2)ccc1Nc1ncc2ccc(-c3ccccc3OC)n2n1 = > 7.00
O=S(=O)(c1cccc(-c2ccc3cnc(Nc4ccc(-c5cccnc5)cc4)nn23)c1)N1CCOCC1 = > 7.00
COc1cc(N2CCC(N3CCN(C(=O)OCc4ccccc4)CC3)CC2)ccc1Nc1ncc2ccc(-c3ccccc3OC)n2n1 = 6.00 to 7.00
COc1cc(N2CCC(N3CCOCC3)CC2)ccc1Nc1ncc2ccc(-c3ccccc3S(C)(=O)=O)n2n1 = 5.00 to 6.00

For each entry beneath this line, provide reported pIC50.
1. Cn1cnc2ccc(Nc3ncc4ccc(-c5cccc(S(=O)(=O)NC(C)(C)C)c5)n4n3)cc21
2. CN1CCC(C(=O)N2CCC(c3ccc(Nc4ncc5ccc(-c6ccccc6N(C)S(C)(=O)=O)n5n4)cc3)CC2)CC1
3. Cn1cc(-c2ccc3cnc(Nc4ccc(N5CCC(N6CCOCC6)CC5)cc4)nn23)cn1
4. COc1cc(C2CCN(C[C@H](Oc3ncc4ccc(-c5ccccc5OC)n4n3)C(F)(F)F)CC2)ccc1N
5. COc1ccccc1-c1ccc2cnc(Nc3ccn(CCN4CCOCC4)n3)nn12
6. COc1ccccc1-c1ccc2cnc(Nc3ccc4c(c3)CCN(C)C4)nn12
7. CN(c1ccccc1-c1ccc2cnc(Nc3ccc4cnn(CCN5CCOCC5)c4c3)nn12)S(C)(=O)=O

1: > 7.00; 2: > 7.00; 3: > 7.00; 4: < 5.00; 5: > 7.00; 6: > 7.00; 7: > 7.00

* * *

For each record, write down the corresponding pIC50.
Test target: ALK (Homo sapiens, UniProt Q9UM73)
Construct: host or cells: baculovirus expression system
Sequence (Q9UM73 19-1620): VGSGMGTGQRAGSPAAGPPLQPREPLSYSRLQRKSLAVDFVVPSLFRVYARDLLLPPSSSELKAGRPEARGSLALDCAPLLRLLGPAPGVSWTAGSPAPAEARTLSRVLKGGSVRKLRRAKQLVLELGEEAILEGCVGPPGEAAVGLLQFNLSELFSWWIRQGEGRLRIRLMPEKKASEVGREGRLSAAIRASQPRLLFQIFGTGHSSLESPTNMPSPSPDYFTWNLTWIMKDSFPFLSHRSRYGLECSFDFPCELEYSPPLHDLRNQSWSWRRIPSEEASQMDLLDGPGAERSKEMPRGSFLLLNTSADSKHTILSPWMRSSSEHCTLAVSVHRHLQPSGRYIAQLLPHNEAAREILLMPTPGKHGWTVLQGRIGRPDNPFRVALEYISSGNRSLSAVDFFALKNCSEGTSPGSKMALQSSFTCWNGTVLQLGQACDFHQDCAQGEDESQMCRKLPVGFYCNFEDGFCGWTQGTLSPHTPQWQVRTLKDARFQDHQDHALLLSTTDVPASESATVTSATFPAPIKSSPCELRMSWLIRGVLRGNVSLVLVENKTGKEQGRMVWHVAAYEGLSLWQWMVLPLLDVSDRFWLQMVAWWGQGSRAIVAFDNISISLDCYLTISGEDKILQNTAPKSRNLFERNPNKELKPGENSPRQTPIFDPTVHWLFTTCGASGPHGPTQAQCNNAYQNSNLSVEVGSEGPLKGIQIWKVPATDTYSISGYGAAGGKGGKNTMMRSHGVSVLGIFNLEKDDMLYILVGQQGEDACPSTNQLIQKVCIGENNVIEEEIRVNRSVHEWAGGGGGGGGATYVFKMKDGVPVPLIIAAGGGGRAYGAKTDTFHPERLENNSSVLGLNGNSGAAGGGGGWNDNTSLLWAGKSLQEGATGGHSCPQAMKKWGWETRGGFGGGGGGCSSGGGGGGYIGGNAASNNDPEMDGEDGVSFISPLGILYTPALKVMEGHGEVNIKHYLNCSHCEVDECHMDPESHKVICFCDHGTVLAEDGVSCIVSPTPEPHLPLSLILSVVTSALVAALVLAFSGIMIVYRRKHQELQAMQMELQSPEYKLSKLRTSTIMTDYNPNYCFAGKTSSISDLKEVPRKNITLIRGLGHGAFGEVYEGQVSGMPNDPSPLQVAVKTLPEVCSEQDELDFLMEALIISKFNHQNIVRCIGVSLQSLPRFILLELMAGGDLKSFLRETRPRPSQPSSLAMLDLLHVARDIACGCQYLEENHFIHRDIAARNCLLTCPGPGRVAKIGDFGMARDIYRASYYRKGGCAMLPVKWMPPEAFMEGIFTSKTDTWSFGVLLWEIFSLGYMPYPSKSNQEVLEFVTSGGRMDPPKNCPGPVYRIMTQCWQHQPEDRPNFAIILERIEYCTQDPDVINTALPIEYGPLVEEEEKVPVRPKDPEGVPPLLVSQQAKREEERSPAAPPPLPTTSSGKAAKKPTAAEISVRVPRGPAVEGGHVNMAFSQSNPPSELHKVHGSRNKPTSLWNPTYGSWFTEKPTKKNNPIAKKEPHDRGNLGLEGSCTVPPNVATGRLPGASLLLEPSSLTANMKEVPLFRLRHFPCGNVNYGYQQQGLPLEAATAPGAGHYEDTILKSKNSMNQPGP
Protocol details: ALK Kinase Assay (ELISA/TRF, PLC-γ substrate)
Assay type: biochemical
Conditions: ALK kinase inhibition, 1 μM ATP; read-out: ALK Potency
Method: Briefly, each 96-well plate was coated with […] of 10 μg/mL substrate (phospholipase C-γ) in Tris-buffered saline (TBS). […] The reaction was initiated by adding enzyme (30 ng/ml ALK) and was allowed to proceed at 37° C. for 15 minutes. Detection of the phosphorylated product was performed by adding 100 μl/well of Eu—N1 labeled PT66 antibody (Perkin Elmer # AD0041). Data analysis was performed using ActivityBase (IDBS, Guilford, UK). […]
pIC50: −log10 of the molar value.

CN(c1ccccc1-c1ccc2cnc(Nc3ccc4cnn(CCN5CCOCC5)c4c3)nn12)S(C)(=O)=O [Example 1334] = 5.00 to 6.00
CC(C)(C)NS(=O)(=O)c1cccc(-c2ccc3cnc(Nc4ccc5scnc5c4)nn23)c1 [Example 575] = 5.00 to 6.00
COc1cc(C2CCN(C)CC2)ccc1Nc1ncc2ccc(-c3cccc(S(=O)(=O)NC(C)(C)C)c3)n2n1 [Example 692] = > 7.00
COc1cc2c(cc1Nc1ncc3ccc(-c4ccccc4OC)n3n1)CN(C)C2 [Example 816] = > 7.00

For each entry beneath this line, provide reported pIC50.
1. COc1ccccc1-c1ccc2cnc(Nc3cccc(S(=O)(=O)N(C)C)c3)nn12 [Example 594]
2. CN1CCN(c2cccc(Nc3ncc4ccc(-c5cnn(CCCO)c5)n4n3)c2)CC1 [Example 976]
3. CCOC(=O)c1cccc(Nc2ncc3ccc(-c4cccc(S(=O)(=O)NC(C)(C)C)c4)n3n2)c1 [Example 890]
4. N#CCCn1cccc1-c1ccc2cnc(Nc3ccc(N4CCOCC4)cc3)nn12 [Example 1293]
5. COc1ccncc1-c1ccc2cnc(Nc3ccc(N4CCOCC4)cc3)nn12 [Example 1211]
6. COc1cc(CN2CCN(C(=O)CN)CC2)ccc1Nc1ncc2ccc(-c3ccccc3N(C)S(C)(=O)=O)n2n1 [Example 1241]
7. COc1cc(N(C)C(=O)CN2CCN(C)CC2)ccc1Nc1ncc2ccc(-c3ccccc3OC)n2n1 [Example 474]

5.00 to 6.00
6.00 to 7.00
< 5.00
6.00 to 7.00
5.00 to 6.00
> 7.00
> 7.00

For each entry beneath this line, provide reported pIC50.
1. COc1cc(C2CCN(C[C@H](O)C(F)(F)F)CC2)ccc1Nc1ncc2ccc(-c3ccccc3OC)n2n1 [Example 799]
2. COc1cc(CN2CCN(C(C)=O)CC2)ccc1Nc1ncc2ccc(-c3ccccc3N(C)S(C)(=O)=O)n2n1 [Example 1240]
3. O=S(=O)(CC1CC1)c1cccc(-c2ccc3cnc(Nc4ccc5nc(C(F)(F)F)[nH]c5c4)nn23)c1 [Example 1318]

["> 7.00", "> 7.00", "< 5.00"]

For each entry beneath this line, provide reported pIC50.
1. COc1ccc(-c2ccc3cnc(Nc4ccc5c(c4)CN(CC(N)=O)C5)nn23)cn1 [Example 926]
2. COc1cc(N2CCC(N(C)C)CC2)ccc1Nc1ncc2ccc(-c3ccccc3N(C)S(C)(=O)=O)n2n1 [Example 475]

5.00 to 6.00
> 7.00

* * *

Test target: JAK2 (Homo sapiens, UniProt O60674)
Construct: host or cells: baculovirus expression system
Protocol details: Recombinant Human JAK2 Kinase Assay (TRF)
Type: biochemical
Conditions: JAK2 Kinase Inhibition; read-out: JAK2 Potency
pIC50: −log10 of the molar value.
Quantity kind: pIC50

CN(c1ccccc1-c1ccc2cnc(Nc3ccc(N4CCOCC4)cc3F)nn12)S(C)(=O)=O = > 7.00
COc1cncc(-c2ccc3cnc(Nc4ccc5c(c4)CCN(CC(=O)N(C)C)CC5)nn23)c1 = > 7.00
CN1CCN(Cc2ccc(Nc3ncc4ccc(-c5ccc(S(C)(=O)=O)cc5)n4n3)cc2)CC1 = > 7.00
O=S(=O)(c1ccccc1)c1ccc2cnc(Nc3ccc(N4CCOCC4)cc3)nn12 = > 7.00
COc1ccc(Cl)cc1-c1ccc2cnc(Nc3cccc(N4CCN(CC(C)(C)O)CC4)c3)nn12 = > 7.00
C=Cc1cc(-c2ccccc2OC)n2nc(Nc3ccc(N4CCN(C)CC4)cc3)ncc12 = > 7.00
C[C@@H](O)CN1CCN(c2ccc(Nc3ncc4ccc(-c5cccc(Cl)c5)n4n3)cc2)CC1 = > 7.00
COc1cc(N2CCN(C)CC2)ccc1Nc1ncc2ccc(-c3ccc(S(C)(=O)=O)cc3)n2n1 = > 7.00
CN(c1cccc(-c2ccc3cnc(Nc4ccc(N5CCOCC5)cc4)nn23)c1)S(C)(=O)=O = > 7.00
CNC(=O)c1cccc(Nc2ncc3ccc(-c4cccc(S(=O)(=O)NC(C)(C)C)c4)n3n2)c1 = > 7.00

For each entry beneath this line, provide reported pIC50.
1. COc1ccc(Cl)cc1-c1ccc2cnc(Nc3ccc(C(=O)N4CCN(C)CC4)cc3)nn12
2. CS(=O)(=O)c1ccc(-c2ccc3cnc(-n4cnc5cnccc54)nn23)cc1
3. O=C(c1ccc(-c2ccc3cnc(Nc4ccc(N5CCOCC5)cc4)nn23)cc1)N1CCOCC1
4. COc1ccccc1-c1ccc2cnc(C(N)=O)nn12
5. CC(=O)N1CCOc2ccc(Nc3ncc4ccc(-c5cccc(S(=O)(=O)NC(C)(C)C)c5)n4n3)cc21

["> 7.00", "5.00 to 6.00", "> 7.00", "< 5.00", "> 7.00"]

Given the entry `COc1ccc(Nc2ncc3ccc(-c4ccccc4N(C)S(C)(=O)=O)n3n2)cc1N1CCCC1=O` , report its measured pIC50. > 7.00
